Each item that follows carries a reported AC50.
Target: Sodium-dependent noradrenaline transporter (Homo sapiens, UniProt P23975); also: assay procedure not described here
Sequence (P23975 whole entry): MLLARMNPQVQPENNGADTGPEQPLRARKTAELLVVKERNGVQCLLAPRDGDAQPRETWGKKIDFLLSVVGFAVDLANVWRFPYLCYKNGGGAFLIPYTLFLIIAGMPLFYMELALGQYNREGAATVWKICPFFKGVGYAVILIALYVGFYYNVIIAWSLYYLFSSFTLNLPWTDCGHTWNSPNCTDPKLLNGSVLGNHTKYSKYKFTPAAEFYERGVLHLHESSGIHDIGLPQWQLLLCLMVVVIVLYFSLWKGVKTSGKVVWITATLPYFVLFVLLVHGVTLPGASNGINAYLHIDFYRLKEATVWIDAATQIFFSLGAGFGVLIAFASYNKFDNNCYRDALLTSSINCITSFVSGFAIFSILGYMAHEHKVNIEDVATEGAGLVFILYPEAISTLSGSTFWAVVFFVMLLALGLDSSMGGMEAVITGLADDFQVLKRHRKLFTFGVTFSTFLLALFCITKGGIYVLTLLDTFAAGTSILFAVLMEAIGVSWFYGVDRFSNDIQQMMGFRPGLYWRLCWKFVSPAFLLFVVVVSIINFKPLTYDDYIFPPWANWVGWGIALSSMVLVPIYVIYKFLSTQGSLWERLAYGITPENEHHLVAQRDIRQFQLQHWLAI
experimental endpoint: AC50 (µM)

* CC(OCCN1CCCCCC1)(c1ccccc1)c1ccc(Cl)cc1 (stereo unspecified) [SETASTINE] | 5.82
* CC(CN1c2ccccc2Sc2ccccc21)N(C)C (stereo unspecified) [PROMETHAZINE] | 11.3
* NNCCc1ccccc1 [PHENELZINE] | 10.8

====

Dear all, this message contains AC50 results, target or system Sodium-dependent dopamine transporter (Homo sapiens, UniProt Q01959). Also: assay procedure not described here.
experimental endpoint: AC50

• CC1(C)S[C@@H]2[C@H](NC(=O)C(C(=O)O)c3ccccc3)C(=O)N2[C@H]1C(=O)O (some centres undefined) = > 30 µM
• CN1CCN=C(c2ccccc2)c2cc(Cl)ccc21 = 22 µM
• CCCN1CCCC[C@H]1C(=O)Nc1c(C)cccc1C = > 30 µM
• CC(C)C[C@H](NC(=O)[C@@H](O)[C@H](N)Cc1ccccc1)C(=O)O = > 30 µM
• Cc1ccccc1-n1c(CF)nc2ccc(N)cc2c1=O = > 30 µM
• O=C(/C=C/c1cccc(S(=O)(=O)Nc2ccccc2)c1)NO = > 10 µM
• COc1cc(C(=O)NC2CCCNC2)cc(OC)c1OC (centres undefined) [TROXIPIDE] = > 30 µM
• O=c1[nH]c2ccccc2n1CCCN1CCN(C(c2ccccc2)c2ccccc2)CC1 [OXATOMIDE] = 0.9 µM
• CCCN(CCC)S(=O)(=O)c1ccc(C(=O)O)cc1 = > 10 µM
